# Test system: K4 kissing-loop RNA reporter;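 also: bound reporter read as fluorescence of individual clusters on recovered sequencing chips by microscopy, with normalized cluster intensities fitted with a binding model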
# method-summary: apparent KD of K4 kissing-loop reporter; higher = weaker reporter binding
# experimental-context: Eterna round: R107; input ligand: tryptophan 2.4 mM
Recorded apparent KD of K4 kissing-loop reporter by entry
A number alone suffices; assume nM.

Solved cases (3 shown):
{"item-sequence": "GACACACUUUCAGGUGUCCAGUGACUGGAUACCAGCAUGGAAACAUGCCCUUGGCAGCCAGAACUGGAAGUGAUGUUUCCAGUAA [Theo A Mod Design7 (Brourd)]", "measured-on": "K4 kissing-loop RNA reporter", "unit-abbreviation": "nM", "apparent KD of K4 kissing-loop reporter": 330}
{"item-sequence": "ACAGUCGGCUGUGAUACCAGUCGUAUUACAACAUGUUGCAGUGAUGUUGCGAGAUAGGAUGACCCUUGGCAGCACUCAGUACGAC [Same State Theophylline B GF10]", "measured-on": "K4 kissing-loop RNA reporter", "unit-abbreviation": "nM", "apparent KD of K4 kissing-loop reporter": 209}
{"item-sequence": "AUGCGCAGCCUGCUUACGUAUGAGCCGGAAGGAGCGGCAGAAUUGCCAGGUAGGUCGCCGGCCCAGUGAUGUUGGGAUGGUGUGG [Atusqubela]", "measured-on": "K4 kissing-loop RNA reporter", "unit-abbreviation": "nM", "apparent KD of K4 kissing-loop reporter": 264}

Looking up AGUCCACUCUAAAGAGUGGACCUAAGGGAUACCAGUGAUGUUGGUCACCCUUGGCAGCCCACUGUCAUCGAUAAAGAUGGCAGCA , I found its apparent KD of K4 kissing-loop reporter recorded as 117

Recorded apparent KD of K4 kissing-loop reporter (sequence UGGAGUUGACGAAAAGUCAACUCCUGAGAUCGAGGACCGGUACGGCCGCCACUCGAGCUAACUGCGAGUGAUGUUCGAAAAUAAA [#OpenEnded 1 - Direct theophylline transfer] ): 97.1

Sure, the documented apparent KD of K4 kissing-loop reporter for AGUGAUGUAUGGCGGUUUGUCACUUAUAAUCAGGAUAUAUAAACAAAUAGAAGGGAUGGCGGAGUGAUGUUCCGCCGGCCGCCAU [FMN A Exl V5] is 149

Values were extracted from the supplement of paper PMC9170038.
